# Tested on: Staphylococcus aureus
# Experimental Protocol: Antibacterial activity against vancomycin, trimethoprim-sensitive and methicillin-resistant Staphylococcus aureus ATCC 43300 harboring dfrB gene
# Assay type: functional
Task for the reader: assign each of the following molecules its reported log10 of MIC.
Hi team, quick reminder: these entries are log10 of MIC (µg/mL).

Lookup: Fill in: log10 of MIC of COc1cc(Cc2cnc(N)nc2N)cc(/C=C/C(=O)N2N=Cc3ccccc3[C@H]2c2cnc(N3CCOCC3)nc2)c1OC is ___
Found: 0.30

Lookup: Fill in: log10 of MIC of COc1cc(Cc2cnc(N)nc2N)cc(/C=C/C(=O)N2N=Cc3ccccc3[C@@H]2c2cnc(N(C)C)nc2)c1OC is ___
Found: -0.30

Lookup: Fill in: log10 of MIC of COc1ncc([C@H]2c3ccccc3C=NN2C(=O)/C=C/c2cc(Cc3cnc(N)nc3N)cc(OC)c2OC)cn1 is ___
Found: -0.90

Lookup: Fill in: log10 of MIC of COc1cc(Cc2cnc(N)nc2N)cc(/C=C/C(=O)N2N=Cc3ccccc3C2c2cnc(N(C)C)nc2)c1OC (stereo not given) is ___
Found: 0.00

Lookup: Fill in: log10 of MIC of COc1cc(Cc2cnc(N)nc2N)cc(OC)c1OC is ___
Found: 0.00

Lookup: Fill in: log10 of MIC of COc1ncc(C2c3ccccc3C=NN2C(=O)/C=C/c2cc(Cc3cnc(N)nc3N)cc(OC)c2OC)cn1 (stereo not given) is ___
Found: -0.60

Lookup: Fill in: log10 of MIC of COc1ncc([C@@H]2c3ccccc3C=NN2C(=O)/C=C/c2cc(Cc3cnc(N)nc3N)cc(OC)c2OC)cn1 is ___
Found: 0.00

Lookup: Fill in: log10 of MIC of COc1cc(Cc2cnc(N)nc2N)cc(/C=C/C(=O)N2N=Cc3ccccc3C2c2cnc(N3CCOCC3)nc2)c1OC (stereo not given) is ___
Found: -0.30

Lookup: Fill in: log10 of MIC of COc1cc(Cc2cnc(N)nc2N)cc(/C=C/C(=O)N2N=Cc3ccccc3[C@H]2c2cnc(N(C)C)nc2)c1OC is ___
Found: 0.30

Lookup: Fill in: log10 of MIC of COc1cc(Cc2cnc(N)nc2N)cc(/C=C/C(=O)N2N=Cc3ccccc3[C@@H]2c2cnc(N3CCOCC3)nc2)c1OC is ___
Found: 0.00

---

# Test system: Enterococcus faecium
# Experimental Protocol: Antibacterial activity against Enterococcus faecium in presence of 250 ug/ml thymidine
# Format: functional
Measurement Type: MIC

Lookup: Fill in: MIC of COc1ncc(C2c3ccccc3C=NN2C(=O)/C=C/c2cc(Cc3cnc(N)nc3N)cc(OC)c2OC)cn1 (centres undefined) is ___
Found: > 128 µg/mL

Lookup: Fill in: MIC of COc1cc(Cc2cnc(N)nc2N)cc(/C=C/C(=O)N2N=Cc3ccccc3C2c2cnc(N(C)C)nc2)c1OC (centres undefined) is ___
Found: ≥ 128 µg/mL

Lookup: Fill in: MIC of COc1cc(Cc2cnc(N)nc2N)cc(OC)c1OC is ___
Found: > 128 µg/mL

Lookup: Fill in: MIC of COc1cc(Cc2cnc(N)nc2N)cc(/C=C/C(=O)N2N=Cc3ccccc3C2c2cnc(N3CCOCC3)nc2)c1OC (centres undefined) is ___
Found: > 128 µg/mL
